Reference source: patent US12612386B2

Answer each item with its documented pest or weed control at 5 µg/cm2, 500 g/ha.
Test system: adult brown dog ticks (Rhipicephalus sanguineus)
Assay explanation: Rhipicephalus sanguineus in-vitro contact test, adult brown dog ticks
Format: in vivo
Condition info: 48 h, read-out: efficacy (ticks dead or moribund)
Answers are plain numbers, in %.

• C[C@H](NC(=O)c1cc(F)cc(OC(F)(F)F)c1)c1ncnn1-c1cc(C(N)=O)ncn1 = 100

Each of the following entries comes with a recorded value; kindly state pest or weed control at 5 µg/cm2, 500 g/ha for each.
1. CC(C)N(C)C(=O)c1cc(-n2ncnc2[C@H](C)NC(=O)c2cc(OC(F)(F)F)cc(C3CC3)c2)ncn1
2. C[C@H](NC(=O)c1cc(Br)cc(OC(F)(F)F)c1)c1ncnn1-c1cc(C(N)=O)ncn1
3. C[C@H](NC(=O)c1cccc(OC(F)(F)F)c1)c1ncnn1-c1cc(C(N)=O)ncn1

result:
[100, 100, 100]

====

Tested on: adult cat fleas (Ctenocephalides felis)
Assay explanation: Ctenocephalides felis in-vitro contact test, adult cat flea
Format: in vivo
Condition info: 5 μg/cm^2 (=500 g/ha), after 48 hours
Reported property: efficacy (fleas dead or moribund) (%)
One number for each entry, in %.

Solved cases (5 shown):
• CC(C)N(C)C(=O)c1cc(-n2ncnc2[C@H](C)NC(=O)c2cc(Br)cc(OC(F)(F)F)c2)ncn1 = 100
• C[C@H](NC(=O)c1cc(Br)cc(Br)c1)c1ncnn1-c1cc(C(N)=O)ncn1 = 100
• CNC(=O)c1cc(-n2ncnc2[C@H](C)NC(=O)c2cc(Br)cc(OC(F)(F)F)c2)ncn1 = 100
• C[C@H](NC(=O)c1cc(F)cc(OC(F)(F)F)c1)c1ncnn1-c1cc(C(N)=O)ncn1 = 100
• C[C@H](NC(=O)c1cc(Br)cc(OC(F)(F)F)c1)c1ncnn1-c1cc(C(N)=O)ncn1 = 100

Each of the following entries comes with a recorded value; kindly state efficacy (fleas dead or moribund) for each.
1. Cc1nc([C@H](C)NC(=O)c2cc(C(F)(F)F)cc(C(F)(F)F)c2)n(-c2cc(C#N)ncn2)n1
2. C[C@H](NC(=O)c1cc(C(F)(F)F)cc(C(F)(F)F)c1)c1ncnn1-c1cc(C(=O)N(C)CC2CC2)ncn1
3. C[C@H](NC(=O)c1cc(Br)cc(OC(F)F)c1)c1ncnn1-c1cc(C#N)ncn1
4. C[C@H](NC(=O)c1cc(Cl)cc(OC(F)(F)F)c1)c1ncnn1-c1cc(C(N)=O)ncn1
5. C[C@H](NC(=O)c1cc(OC(F)(F)F)cc(OC(F)(F)F)c1)c1ncnn1-c1cc(C(N)=O)ncn1
6. C[C@H](NC(=O)c1cc(OC(F)F)cc(C2CC2)c1)c1ncnn1-c1cc(C(N)=O)ncn1
7. C[C@H](NC(=O)c1cccc(OC(F)(F)F)c1)c1ncnn1-c1cc(C(N)=O)ncn1

result:
1: 90; 2: 100; 3: 100; 4: 100; 5: 100; 6: 90; 7: 100

====

Answer each item with its documented Emax at 100 g/ha.
System: green peach aphid (Myzus persicae)
Assay explanation: Myzus persicae spray test (MYZUPE)
Type: in vivo
Condition info: 120 h, MYZUPE, 100 g ai/ha, 5 dat (Table 4), read-out: % Efficacy
Numbers only, in %.

- CNC(=O)c1cc(-n2ncnc2[C@H](C)NC(=O)c2cc(Cl)cc(S(=O)(=O)C(F)(F)F)c2)ncn1: 100
- C[C@H](NC(=O)c1cc(Cl)cc(S(=O)(=O)C(F)(F)F)c1)c1ncnn1-c1cc(C#N)ccn1 [I-075 Known from WO 2019197468, reference compound]: 90
- C[C@H](NC(=O)c1cc(Cl)cc(S(=O)(=O)C(F)(F)F)c1)c1ncnn1-c1cc(C(N)=O)ncn1: 90

Pending molecule:
query: Observed Emax at 100 g/ha on green peach aphid (Myzus persicae) for C[C@H](NC(=O)c1cc(Cl)cc(S(=O)(=O)C(F)(F)F)c1)c1ncnn1-c1ccccn1 [I-068 Known from WO 2019197468, reference compound] , please.
result: 0
